# maps each entry to its Emax
# MEASURED_ON: Full-length glucokinase (beta cell isoform) (Homo sapiens, UniProt P35557)
# Construct: Full-length glucokinase (beta cell isoform) was His-tagged at N-terminus; His tag (N); made in house; host or cells: E. coli BL21(DE3), pBCGK vector
# Sequence (P35557 whole entry, canonical isoform): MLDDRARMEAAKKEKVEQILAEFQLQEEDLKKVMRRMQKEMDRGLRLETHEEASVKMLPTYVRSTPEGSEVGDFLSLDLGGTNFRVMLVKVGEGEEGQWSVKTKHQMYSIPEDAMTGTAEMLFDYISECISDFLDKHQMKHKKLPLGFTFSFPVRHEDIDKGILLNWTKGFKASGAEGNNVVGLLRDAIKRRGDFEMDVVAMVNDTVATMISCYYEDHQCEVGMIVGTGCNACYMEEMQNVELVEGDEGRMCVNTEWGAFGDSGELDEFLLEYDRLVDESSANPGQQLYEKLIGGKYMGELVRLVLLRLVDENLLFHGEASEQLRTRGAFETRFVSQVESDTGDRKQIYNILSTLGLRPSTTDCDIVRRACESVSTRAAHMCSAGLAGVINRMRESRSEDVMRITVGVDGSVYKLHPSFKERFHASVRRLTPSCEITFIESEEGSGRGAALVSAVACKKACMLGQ
# ASSAY_METHOD_TEXT: Glucokinase activation assay (PK/LDH-coupled, NADH depletion at 340 nm)
# Format: biochemical
# CONDITIONS_USED: % max activation = (Va/Vo−1)×100 from fit; 5 mM glucose, pH 7.1; single value or range where N>1; read-out: Maximum Activation (%)

Prompt: Requested field: Emax. Item: Cc1ccc(NC(=O)[C@H](CC2CCCC2)n2cc(S(=O)(=O)C(C)C)cn2)nc1
Response: 38 to 50%

Prompt: Requested field: Emax. Item: CC(C)S(=O)(=O)c1cnn([C@@H](CC2CCCC2)C(=O)Nc2ccc(C(F)(F)F)cn2)c1
Response: 15 to 23%

Prompt: Requested field: Emax. Item: O=C(Nc1cnc([C@H](O)CO)cn1)[C@H](CC1CCCC1)n1cnc(C(F)(F)F)c1
Response: 121 to 140%

Others:
Prompt: Requested field: Emax. Item: CC(C)S(=O)(=O)c1cnn([C@@H](CC2CCCC2)C(=O)Nc2ccncn2)c1
Response: 57 to 90%
